Just for reference, PubChem BioAssay (NCI) is where these values come from.

- System: RXF 393 renal
- Procedure Text: NCI tumour cell line growth inhibition, 48 h
Parameter Measured: TGI (µM)
# unit: µM | format: bare number

The cases that follow already have their TGI on record.
- CC(C)=CCc1c2c(c(O)c3c(=O)c4c(oc13)-c1ccc(O)cc1OC4C=C(C)C)C=CC(C)(C)O2 (stereo not given): 20.1
- CC1(Cl)CC(C)(/C=C/Cl)C(Cl)CC1Cl (stereo not given): 30.6

Which TGI value belongs to O=C1/C(=C/c2ccc(Cl)cc2)Oc2ccccc21 ?
54.8

Then what about the molecule Oc1ccccc1C=Nc1nc(OCc2ccccc2)nc2[nH]ncc12 ?
33.4

Then what about the molecule CC(C)=CCC/C(C)=C/C=C/C(C)=C/C1C[C@@]2(C(O)O1)[C@H](CCCO)/C(=C(/C)C=O)CC[C@]2(C)O (stereo not given in full) ?
35.2

###

- Tested on: OVCAR-8 ovarian
- Procedure Text: NCI tumour cell line growth inhibition, 48 h; in the data active = GI50 below about 0.43 µM; inactive = the rest
Give one outcome, nothing more. List: 1 (active), 0 (inactive)

Consider the following illustrative entries.
* O=C(/C=C(\[O-])c1ccccc1)CCCCCCC(=O)/C=C(\[O-])c1ccccc1.O=C(/C=C(\[O-])c1ccccc1)CCCCCCC(=O)/C=C(\[O-])c1ccccc1.O=C(/C=C(\[O-])c1ccccc1)CCCCCCC(=O)/C=C(\[O-])c1ccccc1.[Nd+3].[Nd+3] | 0
* C=C1CC/C=C(\C)CC[C@H](C(=C)C)[C@@H](O)/C=C(/CO)CCC1O (some centres undefined) | 0
* Cn1ccnc1C(=O)/C=C/c1ccc(C(=O)Nc2c(F)c(F)c(F)c(F)c2F)cc1 | 0
* COc1ccc(/C=C/C(C)=N/OCC(=O)Nc2ccc(Cl)cc2)cc1 | 0
* CC1OC(OC2C(O[C@H]3CC[C@@]4(C)C(=CC[C@H]5[C@@H]6C[C@@H]7O[C@]8(CC[C@@H](C)CO8)[C@@H](C)[C@@H]7[C@@]6(C)CC[C@@H]54)C3)OC(CO)C(OC3OC(CO)C(O)C3O)C2O)C(O)C(O)C1O (some centres undefined) | 1
* CNCc1cccc2c1OCCOCCOCCC(C)S(=O)(=O)c1ccc(cc1)-c1cnc(N)c(n1)C(=O)N2 (centres undefined) | 0
* O=C1CCS/C(=N/S(=O)(=O)c2ccc(N3N=C4c5ccccc5CC4C3c3cccs3)cc2)N1Cc1ccccc1 (centres undefined) | 0
* C=CCN=C(N/N=C/c1ccc([N+](=O)[O-])o1)NS(=O)(=O)c1cc(C(=O)Nc2ccccc2)c(Cl)cc1SCC(N)=O | 0
* Oc1ccccc1C=Nc1nc(OCc2ccccc2)nc2[nH]ncc12 | 0
* COc1ccc(/C=C\c2cc(OC)c(OC)c(OC)c2)c(NS(=O)(=O)c2ccc(C(C)(C)C)cc2)c1O | 0

Returns: the outcome recorded for CCSc1ncc(Br)c(Sc2nc(N)nc3nc[nH]c23)n1 in this assay.
0

Then what about the compound COc1c(O)c2c3c(c1OC)-c1ccccc1CC3N(S(=O)(=O)c1ccc(C)cc1)CC2 (centres undefined) ?
0

Then what about the compound COc1cc(/C=C\c2cc(OC)c(OC)c(OC)c2)cc(NS(=O)(=O)c2ccc(Cl)cc2)c1OC ?
0

Then what about the compound COC(=O)c1ccc2[nH]c(O)c(C(=Nc3ccc(N(C)C(=O)CN4CCN(C)CC4)cc3)c3ccccc3)c2c1 ?
0

###

// values below are reported TGI
- System: T-47D breast
- Procedure Text: NCI tumour cell line growth inhibition, 48 h
# unit: µM | format: bare number

The cases that follow already have their TGI on record.
* N/C(=N\C(N)=N\c1nc2ccccc2s1)c1cnccn1 | 6.22
* COc1cccc(C2C(C#N)=C(N)Oc3cc4c(cc32)OCO4)c1 (stereo not given) | 28
* O=c1c2cc(I)ccc2nc(-c2cccs2)n1O | 77.5

Now let's try a different one.
Which TGI value belongs to CC1CCCN1CCCOC(=O)c1ccc(OC2C=CCCC2)cc1 (stereo not given) ?
34.4

###

- Tested on: TK-10 renal
- Procedure Text: NCI tumour cell line growth inhibition, 48 h
// values below are reported TGI
# unit: µM | format: bare number

• CCCCC[C@@H](C/C=C/CCC(=O)NC/C(=C/Cl)[C@H]1C(=O)C(C)(C)C(=O)[C@@H](C)[C@@]1(C)O)OC = 40.5
• NC(N)=N/N=C/c1c(-c2ccc(Cl)c([N+](=O)[O-])c2)nc2sc3ccccc3n12 = 1.91
• CNCc1cccc2c1OCCOCCOCCC(C)S(=O)(=O)c1ccc(cc1)-c1cnc(N)c(n1)C(=O)N2 (stereo not given) = 8.25

Which TGI value belongs to COc1ccc(Cc2nc3cc(OC)c(OC)cc3c(=O)[nH]2)cc1 ?
54

Then what about the compound CC1CCCN1CCCOC(=O)c1ccc(OC2C=CCCC2)cc1 (stereo not given) ?
88.8

Then what about the compound c1ccc(-c2c(-c3[nH]c4ccccc4c3-c3ccccc3)[nH]c3ccccc23)cc1 ?
22.4

Then what about the compound CCCCCCCCCCCCC1N=C(N)NC2(CCCO2)C1C(=O)OC (stereo not given) ?
15.5

Then what about the compound CC1=C2[C@@H](CC1)[C@]1(C)O[C@@](C3CC3)(C[C@H]1OC(=O)CO)[C@H]2OC(=O)/C=C/c1ccccc1 ?
33.8

Then what about the compound Cn1ccnc1C(=O)/C=C/c1ccc(C(=O)Nc2c(F)c(F)c(F)c(F)c2F)cc1 ?
3.69

###

// values below are reported TGI
- Test system: IGROV1 ovarian
- Procedure Text: NCI tumour cell line growth inhibition, 48 h

• CC(C)=CC(=O)c1c(C(=O)O)nc2ccccc2[n+]1[O-] = > 100 µM
• Cn1c(NC(=O)NC23CC4CC(CC(C4)C2)C3)nc2ccccc21 = > 100 µM
• COC(=O)C1CCC(=O)N1/C(C)=N/NC(=O)Nc1ccc(Cl)c(Cl)c1 (stereo not given) = > 100 µM
• COc1cc2c(cc1OC)C(=O)N(c1ccc(OCCN3CCCC3)cc1)C2=O = > 100 µM
• CC(=O)[C@]1(O)Cc2c(O)c3c(c(O)c2[C@@H](OC2CC(N)C(O)C(C)O2)C1)C(=O)c1c(OCc2ccccc2)cccc1C3=O (stereo not given in full) = 33.8 µM

Which TGI value belongs to COC(=O)c1ccccc1C1CN=NC12Cc1c(C)ccc(C)c1C2=O (stereo not given) ?
> 100 µM

Then what about the molecule O=C(Nc1ccc(C(F)(F)F)cc1[N+](=O)[O-])c1cccnc1 ?
> 100 µM

Then what about the molecule Nc1nc(=S)[nH]c(C(=O)Nc2nccs2)c1-c1ccccc1 ?
> 100 µM

Then what about the molecule CC1=C(CNO)C2=C(C)C3(CC3)[C@@](C)(O)C(=O)C2=C1 ?
7 µM

Then what about the molecule N#CCCN(CCC#N)c1ccc(C=Nc2ccc(F)cc2)cc1 ?
> 100 µM

###

- System: MDA-MB-435
- Procedure Text: NCI tumour cell line growth inhibition, 48 h
// values below are reported TGI
# unit: µM | format: bare number

• Oc1ccccc1C=Nc1nc(OCc2ccccc2)nc2[nH]ncc12 = 44.8
• NC(N)=N/N=C/c1c(-c2ccncc2)nc2sc(Cl)cn12 = 13.6

Now let's try a different one.
Which TGI value belongs to CCN(CC)CCOc1ccc2c(C)c(C(=O)OC)oc2c1C(=O)/C=C/c1ccc(OC)cc1 ?
15.8

###

- Test system: NCI-H522 lung
- Procedure Text: NCI tumour cell line growth inhibition, 48 h; in the data active means GI50 below about 0.43 µM; inactive means the rest
Give one outcome, nothing more. List: active, inactive

• N#CCC1(n2cc(-c3ncnc4[nH]ccc34)cn2)CN(C2CCN(C(=O)c3ccnc(C(F)(F)F)c3F)CC2)C1 = inactive
• COc1ccc(/C(C)=C(\c2ccc(Cl)cc2)c2ccc(OCCN3CCCCCC3)cc2)cc1F = inactive
• NC(N)=N/N=C/c1c(-c2ccc(Cl)c([N+](=O)[O-])c2)nc2sc3ccccc3n12 = inactive
• O=C1CCS/C(=N/S(=O)(=O)c2ccc(N3N=C4c5ccccc5CC4C3c3cccs3)cc2)N1Cc1ccccc1 (configuration not stated) = inactive
• COc1ccc(OCC(O)CN2CCN(c3ccc(Cl)cc3)CC2)cc1 (configuration not stated) = inactive

Returns: the outcome recorded for CNCc1cccc2c1OCCOCCOCCC(C)S(=O)(=O)c1ccc(cc1)-c1cnc(N)c(n1)C(=O)N2 (configuration not stated) in this assay.
inactive

Then what about the compound NC(N)=N/N=C/c1c(-c2ccncc2)nc2sc(Cl)cn12 ?
inactive

Then what about the compound COc1cccc(C2C(C#N)=C(N)Oc3cc4c(cc32)OCO4)c1 (configuration not stated) ?
active

Then what about the compound O=c1nc2[nH]c3c(-c4n[nH]c(=O)[nH]c4=O)cccc3c2n[nH]1 ?
inactive

Then what about the compound O=C(/C=C(\[O-])c1ccccc1)CCCCCCC(=O)/C=C(\[O-])c1ccccc1.O=C(/C=C(\[O-])c1ccccc1)CCCCCCC(=O)/C=C(\[O-])c1ccccc1.O=C(/C=C(\[O-])c1ccccc1)CCCCCCC(=O)/C=C(\[O-])c1ccccc1.[Nd+3].[Nd+3] ?
inactive

Then what about the compound Clc1ccc2c(NCCCN3CCN(c4nc(N5CCOCC5)nc5ccccc45)CC3)ccnc2c1 ?
inactive
